Biological target: recombinant DYRK1A kinase (Homo sapiens (Human), UniProt Q13627)
Assay: DYRK1A kinase assay (Ser/Thr 18 peptide Z-lyte FRET)
Assay type: biochemical
Conditions: DYRK1A kinase activity, Z-lyte Ser/Thr 18 peptide, 15 μM ATP; method text calls the value IC50; read-out: EC50 (the source's name)
Method: Representative compounds were screened using the assay procedure for DYRK1A kinase activity as described below. Each compound was dissolved in DMSO as a 10 mM stock and used to prepare compound source plates. […] The Emission ratio (Em) was calculated as a ratio of the coumarin (C) emission signal (at 445 nm)/Fluorescein (F) emission signal (at 520 nm). The percent phosphorylation was then calculated using the following formula: [1−((Em ratio X F100%)-C100%)/((C0%-C100%) +(Em ratio X (F100%−F0%)))]. […]
Below, each entry is listed alongside its reported log10 of IC50.
ATTRIBUTE_MEASURED: log10 of IC50 (log10 of the value in nM)

RECORD_SMILES	log10 of IC50
COc1nc(NC23CCC(O)(CC2)C3)nn2ccc(-c3ccc4ncnn4c3)c12	1.61
COc1nc(N[C@H]2CCN(CC(C)(C)O)C[C@H]2F)nn2cc(F)c(-c3ccc4ncccc4c3)c12	0.36
COc1nc(N[C@H]2CC[C@@H](NC(C)=O)CC2)nn2ccc(-c3ccc4nccn4c3)c12	-0.15
COc1nc(NC2CC3(COC3)C2)nn2ccc(-c3ccc4nccn4c3)c12	0.72
COc1nc(NC2CCN(C(C)=O)CC2)nn2ccc(-c3ccc4nccn4c3)c12	0.66
COc1nc(N[C@@H]2CN(C)C[C@@H]2F)nn2ccc(-c3ccc4nccnc4c3)c12	0.15
COc1nc(N[C@H]2CC[C@@H](OC)CC2)nn2ccc(-c3ccc4nccn4c3)c12	0.97
COc1nc(N[C@@H]2CCN(C)CC2(F)F)nn2ccc(-c3cc(F)c4nccn4c3)c12	0.69
